# test.target: UniProtKB Q99500
# Sequence (Q99500 whole entry): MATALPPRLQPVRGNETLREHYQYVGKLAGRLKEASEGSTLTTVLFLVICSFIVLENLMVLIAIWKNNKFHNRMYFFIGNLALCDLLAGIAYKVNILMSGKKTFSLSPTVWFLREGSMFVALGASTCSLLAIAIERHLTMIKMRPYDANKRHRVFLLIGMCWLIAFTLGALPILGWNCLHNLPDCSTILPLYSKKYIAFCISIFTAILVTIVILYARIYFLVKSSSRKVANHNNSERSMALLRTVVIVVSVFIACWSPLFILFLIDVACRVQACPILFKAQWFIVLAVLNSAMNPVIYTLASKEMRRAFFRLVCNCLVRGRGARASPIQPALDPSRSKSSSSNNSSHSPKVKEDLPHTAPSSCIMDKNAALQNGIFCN
# protocol.notes: S1P3 agonist test, S1P3 NFAT-bla CHO cells
# experimental.conditions: S1P3 NFAT-BLA CHO cell line
value.type: EC50

Please report the recorded EC50 for "CCCCCCCCCCCCCCCCNC(CO)(CO)CO" .
> 50 µM

====

# test.target: S1P2 (Homo sapiens, UniProt O95136)
# Construct: expressed in transfected cells; host or cells: S1P2 CRE-bla CHO cells
# Sequence (O95136 whole entry): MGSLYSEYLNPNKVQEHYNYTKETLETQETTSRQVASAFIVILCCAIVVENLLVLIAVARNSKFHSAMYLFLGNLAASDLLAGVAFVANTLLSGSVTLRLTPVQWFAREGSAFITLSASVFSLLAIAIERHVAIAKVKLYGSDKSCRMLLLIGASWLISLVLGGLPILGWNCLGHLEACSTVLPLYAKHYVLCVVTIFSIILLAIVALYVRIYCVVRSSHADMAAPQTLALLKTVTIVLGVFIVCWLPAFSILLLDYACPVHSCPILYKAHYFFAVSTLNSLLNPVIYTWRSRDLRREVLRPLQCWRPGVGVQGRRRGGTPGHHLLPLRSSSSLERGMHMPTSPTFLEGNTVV
# protocol.notes: S1P2 agonist test, S1P2 CRE-bla CHO cells
# Format: cell-based
# experimental.conditions: S1P2 CRE-BLA CHO cell line
value.type: EC50

Please report the recorded EC50 for "CCCCCCCCCCCCCCCCNC(CO)(CO)CO" .
> 50 µM

====

# test.target: S1P5 (Homo sapiens, UniProt Q9H228)
# Construct: Tango fusion partner (protease site + GAL4-VP16 transcription factor)
# Sequence (Q9H228 whole entry, the tested form may be a part): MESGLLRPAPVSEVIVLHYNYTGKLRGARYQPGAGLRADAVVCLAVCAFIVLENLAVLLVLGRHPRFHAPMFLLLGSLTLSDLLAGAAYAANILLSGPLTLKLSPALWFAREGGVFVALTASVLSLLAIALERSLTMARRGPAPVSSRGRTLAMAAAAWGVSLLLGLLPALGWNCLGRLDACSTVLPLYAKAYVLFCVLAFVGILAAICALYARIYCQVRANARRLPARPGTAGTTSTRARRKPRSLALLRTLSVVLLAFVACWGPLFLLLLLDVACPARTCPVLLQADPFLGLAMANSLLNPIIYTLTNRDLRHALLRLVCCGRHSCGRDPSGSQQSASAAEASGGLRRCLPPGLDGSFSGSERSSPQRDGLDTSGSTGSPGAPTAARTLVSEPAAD
# protocol.notes: S1P5 antagonist test, Tango S1P5-bla U-2 OS cells
# experimental.conditions: S1P5 TANGO U-2 OS cell line
# Excerpt: Since AD2900 is a sphingolipid analogue with properties that resemble those of S1P, we intended to examine its ability to interact with the S1P receptors. To delineate whether AD2900 can function as an agonistic or antagonistic compound to any of the S1P receptors, we used a high-throughput screening cell-based assay, employing cell lines stably transfected with human S1P receptors 1, 2, 3, 4, or 5 [37]. […]
value.type: IC50

What is its IC50 for S1P5 (Homo sapiens, UniProt Q9H228)? Entry: CCCCCCCCCCCCCCCCNC(CO)(CO)CO [AD2900]
405 nM

====

# test.target: S1P1 (Homo sapiens, UniProt P21453)
# Sequence (P21453 whole entry): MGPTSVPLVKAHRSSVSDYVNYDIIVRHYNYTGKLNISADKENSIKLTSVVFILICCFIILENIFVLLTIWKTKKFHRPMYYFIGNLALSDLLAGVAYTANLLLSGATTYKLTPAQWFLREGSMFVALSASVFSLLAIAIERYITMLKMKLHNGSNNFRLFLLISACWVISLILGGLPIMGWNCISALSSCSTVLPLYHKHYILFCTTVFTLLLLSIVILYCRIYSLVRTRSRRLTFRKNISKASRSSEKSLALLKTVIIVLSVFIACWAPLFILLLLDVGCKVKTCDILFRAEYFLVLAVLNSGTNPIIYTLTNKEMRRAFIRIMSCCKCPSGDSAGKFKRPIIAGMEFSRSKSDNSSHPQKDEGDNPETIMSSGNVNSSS
# protocol.notes: S1P1 antagonist assay, Tango S1P1 (EDG1)-bla U-2 OS cells
# experimental.conditions: S1P1 TANGO U-2 OS cell line
value.type: IC50 (µM)
Give the value, in units of µM, as a plain number.

What is its IC50 for S1P1 (Homo sapiens, UniProt P21453)? Entry: CCCCCCCCCCCCCCCCNC(CO)(CO)CO [AD2900]
3.8

====

# test.target: S1P5 (Homo sapiens, UniProt Q9H228)
# Construct: Tango fusion partner (protease site + GAL4-VP16 transcription factor)
# protocol.notes: S1P5 agonist test, Tango S1P5-bla U-2 OS cells
# experimental.conditions: S1P5 TANGO U-2 OS cell line
value.type: EC50

Please report the recorded EC50 for CCCCCCCCCCCCCCCCNC(CO)(CO)CO [AD2900] .
> 50 µM

====

# test.target: S1P4 (Homo sapiens, UniProt O95977)
# Construct: Tango fusion partner (protease site + GAL4-VP16 transcription factor)
# Sequence (O95977 whole entry, the tested form may be a part): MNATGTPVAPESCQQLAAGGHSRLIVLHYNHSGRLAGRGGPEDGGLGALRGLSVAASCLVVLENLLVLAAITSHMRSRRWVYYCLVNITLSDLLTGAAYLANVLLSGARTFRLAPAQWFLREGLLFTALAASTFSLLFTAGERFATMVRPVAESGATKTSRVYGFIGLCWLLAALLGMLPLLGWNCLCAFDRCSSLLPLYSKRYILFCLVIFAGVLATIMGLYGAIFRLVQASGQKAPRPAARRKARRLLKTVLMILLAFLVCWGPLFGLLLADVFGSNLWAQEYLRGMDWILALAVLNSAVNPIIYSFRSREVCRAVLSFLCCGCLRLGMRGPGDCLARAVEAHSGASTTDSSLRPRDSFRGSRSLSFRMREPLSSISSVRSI
# protocol.notes: S1P4 antagonist test, Tango S1P4 (EDG6)-bla U-2 OS cells
# experimental.conditions: S1P4 TANGO U-2 OS cell line
value.type: IC50
Note: state the figure and append the unit.

Please report the recorded IC50 for CCCCCCCCCCCCCCCCNC(CO)(CO)CO [AD2900] .
5.9 µM

====

# test.target: S1P2 (Homo sapiens, UniProt O95136)
# protocol.notes: S1P2 antagonist test, S1P2 CRE-bla CHO cells
# experimental.conditions: S1P2 CRE-BLA CHO cell line
value.type: IC50 (µM)
Give the value, in units of µM, as a plain number.

Please report the recorded IC50 for CCCCCCCCCCCCCCCCNC(CO)(CO)CO [AD2900] .
3.2
